protocol_text: inhibitors of TWEAK-Fn14 signaling, primary screen, luciferase reporter cells, uHTS (AID 1159606)
cond: TWEAK-stimulated Fn14 reporter cells, luciferase luminescence, 8 h; at 10 µM
About 7,300 (2%) of roughly 360,000 compounds were called active. Cut-off read from the data, not from the text of the source: active = inhibition above about 50%; inactive = the rest. For the sample, actives were picked, then their nearest neighbours and some compounds at random.
Return exactly one item of 1 for active, -1 for inactive

For this compound, state the assay outcome: `Cc1ccc(C(=O)CSc2ccccc2C(=O)O)cc1`
1

For this compound, state the assay outcome: CCCC(C)C(=O)Nc1ccc(NC(C)=O)cc1 (stereo not given)
-1

For this compound, state the assay outcome: `OCCc1ccc(NCCc2ccco2)cc1`
-1

For this compound, state the assay outcome: `O=S(=O)([N-]c1nc2ccccc2nc1-[n+]1ccc(Cc2ccccc2)cc1)c1ccc(Br)s1`
1

For this compound, state the assay outcome: `O=C(Nc1ccc(CSc2ccccc2)cc1)c1ccc(CN2CCOCC2)cc1`
1

For this compound, state the assay outcome: `O=C(Nc1ccccc1C(=O)N1CCOCC1)c1ccc(CSc2ccccc2)cc1`
-1

For this compound, state the assay outcome: `Cc1ccc(Sc2cc(C(=O)c3ccccc3C(=O)O)ccc2[N+](=O)[O-])cc1`
-1

For this compound, state the assay outcome: `O=C(C[C@H]1C[C@H](C(=O)N2CCOCC2)[C@@]2(CCC3CCCC3)c3[nH]c4ccc(Cl)cc4c3CCN2C1=O)NCc1ccco1`
-1

For this compound, state the assay outcome: `C[C@H](CO)N1C[C@H](C)[C@H](CN(C)C(=O)Nc2ccc(C(F)(F)F)cc2)Oc2c(NC(=O)c3ccncc3)cccc2C1=O`
-1

For this compound, state the assay outcome: `O=S(=O)(NCc1ccccn1)c1ccc(Br)s1`
-1

* * *

Listing of recorded inhibition by entry.
protocol_text: inhibitors of TWEAK-Fn14 signaling, primary screen, luciferase reporter cells, uHTS (AID 1159606)
cond: TWEAK-stimulated Fn14 reporter cells, luciferase luminescence, 8 h; at 10 µM; hits give high values
Among all 360,000 compounds or so, about 7,300 (2%) were called active. The sample as a whole holds a higher share of actives than the screen did.
A number alone suffices; assume %.

{"columns": ["molecule", "assay_value"],
 "data": [
  ["COc1ccc(S(=O)(=O)Nc2ccc3oc(C)c(C(C)=O)c3c2)cc1", 54.4],
  ["O=C(COC(=O)c1cc(=O)[nH]c2ccccc12)NCc1cccc(Cl)c1", -18.6],
  ["O=C(NC(=S)Nc1ccccc1C(=O)O)c1ccc(-c2ccc(Br)cc2)o1", 47.2],
  ["O=C(COC(=O)c1cc(=O)[nH]c2ccccc12)Nc1nc(-c2cccc(Br)c2)cs1", 75.8],
  ["CCCCOC(=O)Nc1sc2nc(C)cc(C)c2c1-n1cccc1", 0.84]
]}

In one line, give reported inhibition of the entry `COc1ccc(S(=O)(=O)N2C[C@H]3CON(C)[C@H]3C[C@H]2c2cccc(Br)c2)cc1` .
-6.92

In one line, give reported inhibition of the entry Cc1ccccc1-c1csc(C(O)c2cccc(Cl)c2)n1 (stereo unspecified) .
-4.88

In one line, give reported inhibition of the entry CC1(C(=O)O)CCN1C(=O)/C=C/c1ccccc1 (stereo unspecified) .
4.71

In one line, give reported inhibition of the entry COc1cccc2c1C(=O)c1c(O)c3c(c(O)c1C2=O)CC(O)(C(C)=NNC(=O)c1ccc(Cl)c(Cl)c1)CC3OC1CC(N)C(O)C(C)O1 (stereo unspecified) .
100

In one line, give reported inhibition of the entry `COc1ccc(CNc2nnnn2C)cc1` .
2.29

In one line, give reported inhibition of the entry `CN(C)c1ccnc2sc3c(=O)n(Cc4ccccc4)cnc3c12` .
69.3

In one line, give reported inhibition of the entry `Cc1ccc(S(=O)(=O)Nc2nc3ccccc3nc2N2CCc3ccccc3C2)cc1` .
86.8

In one line, give reported inhibition of the entry `CN1OC[C@@H]2CN(S(=O)(=O)c3cccc4ccccc34)[C@H](c3ccc(N4CCCCC4)cc3)C[C@@H]21` .
-7.73

In one line, give reported inhibition of the entry `CC(=O)c1c(C)oc2ccc(NS(=O)(=O)c3ccccc3)cc12` .
21.6

In one line, give reported inhibition of the entry CC(=O)Nc1ccc(NC(=O)C(C)OC(=O)c2ccccc2C(=O)c2ccc(Cl)c([N+](=O)[O-])c2)cc1 (stereo unspecified) .
95.7

In one line, give reported inhibition of the entry `O=C(Nc1cccc(NC(=O)c2ccccc2[N+](=O)[O-])c1)c1ccccc1Cl` .
-3.52

In one line, give reported inhibition of the entry `CCCOc1ccc(F)cc1-c1cc(C(=O)Nc2ccc(F)cc2)[nH]n1` .
37.3

In one line, give reported inhibition of the entry `O=c1c2c(ncn1Cc1ccccc1)nc1n2CCC1` .
-3.28

In one line, give reported inhibition of the entry `CC(=O)c1c(C)oc2ccc(NS(=O)(=O)c3ccc(C(=O)O)cc3)cc12` .
3.85

In one line, give reported inhibition of the entry O=S1(=O)CC(N2CCN(CCO)CC2)CN1Cc1cn(Cc2ccc(Cl)cc2)nn1 (stereo unspecified) .
-0.1

In one line, give reported inhibition of the entry `O=c1c2sccc2nc(SCc2cc(=O)n3ccccc3n2)n1-c1ccc(Br)cc1` .
-8.13

* * *

protocol_text: inhibitors of TWEAK-Fn14 signaling, primary screen, luciferase reporter cells, uHTS (AID 1159606)
cond: TWEAK-stimulated Fn14 reporter cells, luciferase luminescence, 8 h; at 10 µM; hits give high values
Screen size: about 360,000 compounds; about 7,300 (2%) were called active. This excerpt belongs to a sample that is enriched for actives.
readout_kind: inhibition (%)
A number alone suffices; assume %.

In one line, give reported inhibition of the entry `N/C(=N\OC(=O)CCC1CCCCC1)c1ccccn1` .
18.4

In one line, give reported inhibition of the entry `Cn1c(=O)c2c(nc(SCCNS(=O)(=O)c3ccccc3)n2C)n(C)c1=O` .
3.41

* * *

protocol_text: inhibitors of TWEAK-Fn14 signaling, primary screen, luciferase reporter cells, uHTS (AID 1159606)
cond: TWEAK-stimulated Fn14 reporter cells, luciferase luminescence, 8 h; at 10 µM
Among all 360,000 compounds or so, about 7,300 (2%) were called active. Cut-off read from the data, not from the text of the source: active = inhibition above about 50%; inactive = the rest. This is one part of a sample in which actives are shown more often than they occur.
Return exactly one item of TRUE (active), FALSE (inactive)

{"columns": ["molecule", "class_assignment"],
 "data": [
  ["Cc1ccc(C)c2[nH]c(=O)c(CCNC(=O)CC(C)C)cc12", "FALSE"]
]}

For this molecule, state the assay outcome: O=C(Cc1ccc(Cl)cc1)NC1CCS(=O)(=O)C1 (stereo not given)
FALSE

For this molecule, state the assay outcome: `O=C(Nc1ccc2ccccc2c1)Nc1ccc2snnc2c1`
TRUE

For this molecule, state the assay outcome: `Cc1ccc(CS(=O)(=O)c2ncc(Cl)c(C(=O)Nc3nnc(C)s3)n2)cc1`
TRUE

For this molecule, state the assay outcome: `Cc1onc(-c2ccccc2)c1-c1nnc(COC(=O)c2ccc(N(C)C)cc2)o1`
TRUE

For this molecule, state the assay outcome: `CCCCCc1ccc(-c2ccc(C(=O)O)cc2)nc1`
TRUE

For this molecule, state the assay outcome: `Cc1onc(-c2ccccc2Cl)c1C(=O)OCc1nnc(-c2ccccc2)o1`
FALSE

For this molecule, state the assay outcome: `CSc1nnc(NC(=O)c2nc(S(=O)(=O)Cc3ccc(C)cc3)ncc2Cl)s1`
TRUE

For this molecule, state the assay outcome: `COc1ccccc1OCCCC(=O)Nc1ccc2c(c1)OCCO2`
FALSE

For this molecule, state the assay outcome: `Cc1ccc(NC(=O)Nc2ccc3oc(C)nc3c2)cc1`
FALSE

For this molecule, state the assay outcome: `CS(=O)(=O)N(Cc1ccccc1)c1ccc(C(=O)NN=C2CCCCCC2)cc1`
FALSE

For this molecule, state the assay outcome: COc1ccc(C2/C(=C(/O)c3ccccc3)C(=O)C(=O)N2c2ncccn2)cc1OC (stereo not given)
FALSE

For this molecule, state the assay outcome: `CCCCc1cc(=O)oc2c(C)c(OCC(=O)N3CCC(C(N)=O)CC3)ccc12`
FALSE

For this molecule, state the assay outcome: `COc1cncc(-c2cnc3sc(NCCc4ccccn4)nn23)c1`
TRUE

For this molecule, state the assay outcome: `CCc1nc2ccc(C(=O)NC3CCN(Cc4ccccc4)CC3)cn2c1N(CC)CCOC`
FALSE

For this molecule, state the assay outcome: `C[C@H](CO)N1C[C@H](C)[C@H](CN(C)C(=O)c2ccncc2)OCc2ccccc2-c2c(n(C)c3ccccc23)C1=O`
FALSE

For this molecule, state the assay outcome: `c1ccc2c(C[n+]3csc4ccccc43)cccc2c1`
FALSE

For this molecule, state the assay outcome: CN(C)C1CN(Cc2cn(Cc3ccccc3)nn2)S(=O)(=O)C1 (stereo not given)
FALSE

For this molecule, state the assay outcome: `Cc1ccc2occ(/C=N/NC(=O)c3ccccc3C)c(=O)c2c1`
TRUE
